- Tested on: RARg:RXRa (NR concentration 270 nM, RXRa partner concentration 90 nM)
- assay.info: PBM binding z-score (relative to random genomic background probes); higher = stronger binding; sequences stand for … in GC…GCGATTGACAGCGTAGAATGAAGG
Assign Met to entries whose PBM binding z-score meets or exceeds 4; assign Not met to the rest.

| sequence.record | label.class |
| --- | --- |
| CCGAGTAGGTTGCGAGGGGGCATTCAGTGCGAAT | Not met |
| CGGCCAAGGTCAAAGGTCAGTGAAGAGATGACGG | Met |
| CCTACTGGGCCAATGTCATTGATCAGTCAAAGCA | Not met |
| CTATGTAGGTTAAGGGGGTCATTCATTTTGAAAG | Met |
| CCTTCTGGGCCATTCAGAGGTCATTGATCATATG | Met |
| ATATGTAGGTTAGGGTCGTTCAGAAAGTAGGGAA | Not met |
| CCGAGTAGGTTACGAGGGAGCATTCAGTGCGAAT | Not met |
| TAGCCTAGGTCATTGTGCCAGTATAGTACGCATC | Not met |
| ATCGAAAGGTCGCAGGTGAGTATACCCACCCGAA | Met |
| ATATGTAGGTTCGGGTCATTCAGAAAGTAGGGAA | Not met |
| CGAACTAGGTCATCAGGACAGTGAAGAGGTTGGA | Met |
| CCGAGTAGGTTTCGAGGGGGCATTCAGTGCGAAT | Not met |
| CATACAGGGTAAGCTAGGCCAGAGTAGGGACGGC | Not met |
| ATCTGTAGGTTAGGGTCATTCAGAAAGTAGGGAA | Met |
| CCTACTGGGGCAAAGGTCATTGATTCCAATGCTC | Met |
| CGAACTAGGGCACCAGGACAGTGAAGAGGTTGGA | Not met |
| ATATGTAGGTTATGGTCATTCAGAAAGTAGGGAA | Not met |
| CCGAGTAGGTTACGAGGGGGCATTCAGTGCGAAT | Not met |
| CGAACTAGGTTACCAGGACAGTGAAGAGGTTGGA | Not met |
| TCTAGTTCGTCACGGAGGTCACACACGACGGGTA | Met |
| ACTCGGGGGACAAAGGTCAGAGCTACGCCAGTGA | Met |
| CGAACTAGGTCAAAGGACAGAGAAAGGCGACGTA | Met |
| CGTCCGAGGTCAAAGGTCAGTGAAGAGATGACGG | Met |
| CGTCGGAGGACAACAGGAGGTCAGAGCTGCCAGA | Not met |

====

- Test system: PXR homodimer (NR concentration 270 nM)
- assay.info: PBM binding z-score (relative to random genomic background probes); higher = stronger binding; sequences stand for … in GC…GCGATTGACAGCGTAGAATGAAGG
Recorded PBM binding z-score, one value per entry.
readout.type: PBM binding z-score

| sequence.record | subject.of.test | readout.type | reported.result |
| --- | --- | --- | --- |
| CCGAGTAGGTTACGAGGGGGCACTCAGTGCGAAT | PXR homodimer (NR concentration 270 nM) | PBM binding z-score | 3.02 |
| CAAAGTAGGTCAAGGTCAAAGTCGGTTTGTGCCA | PXR homodimer (NR concentration 270 nM) | PBM binding z-score | 2.55 |
| CCGTACGGGTCAAGGTTATAGCACGGGTGGTACG | PXR homodimer (NR concentration 270 nM) | PBM binding z-score | 0.0308 |
| CGTCCAAGGTCAGTGAGGTCAGTGAATGCCGAGT | PXR homodimer (NR concentration 270 nM) | PBM binding z-score | 11.8 |
| CGAACTAGGTCACCAGGACCGTGAAGAGGTTGGA | PXR homodimer (NR concentration 270 nM) | PBM binding z-score | -0.498 |
| CCTTACCGGTCAAGGTTATAGCACGGGTGGTACG | PXR homodimer (NR concentration 270 nM) | PBM binding z-score | 0.299 |
| TATACAGGGTCAAAGGGCAGAGTACGAATGTCGA | PXR homodimer (NR concentration 270 nM) | PBM binding z-score | 1.62 |
| AGTCAAAGTTCAGGACGAGGTCACGTAAAGCACG | PXR homodimer (NR concentration 270 nM) | PBM binding z-score | 7.95 |
| TCGAGTAGGTTACGGGGGCATTAAGGGATGAAGA | PXR homodimer (NR concentration 270 nM) | PBM binding z-score | 1.24 |
| CGAACTATGTCAAAGGACAGTGAAAGGCGACGTA | PXR homodimer (NR concentration 270 nM) | PBM binding z-score | -0.587 |
| CCTTACGGGCCACGAGGTTATAGCACGACGAGCG | PXR homodimer (NR concentration 270 nM) | PBM binding z-score | -0.12 |
| TCGAGTAGGTTACGGGGGCATTCCGGGATGAAGA | PXR homodimer (NR concentration 270 nM) | PBM binding z-score | 1.1 |
| CGAACTAGGTCAAATGACAGTGAAAGGCGACGTA | PXR homodimer (NR concentration 270 nM) | PBM binding z-score | 0.00572 |
| CTATGTAGGTTAAGGGGATCATTCAGTTTGAAAG | PXR homodimer (NR concentration 270 nM) | PBM binding z-score | 0.432 |
| TCGAGTAGGTTACAGGGGCATTCAGGGATGAAGA | PXR homodimer (NR concentration 270 nM) | PBM binding z-score | 0.587 |
| CAAACTAGGCCAAGGTCAAAGTCGGTTTGTGCCA | PXR homodimer (NR concentration 270 nM) | PBM binding z-score | 1.2 |
| CTATGTAGATTAAGGGGGTCATTCAGTTTGAAAG | PXR homodimer (NR concentration 270 nM) | PBM binding z-score | 10.4 |
| CCTAGTTGGCCAAGGTCACACACGCTATAGGTAC | PXR homodimer (NR concentration 270 nM) | PBM binding z-score | 1.93 |
| CGAATTAGGTCACCAGGACAGTGAAGAGGTTGGA | PXR homodimer (NR concentration 270 nM) | PBM binding z-score | 0.578 |
| TCTCGGATGACACGAAAGGTCAGAGCTCGACATC | PXR homodimer (NR concentration 270 nM) | PBM binding z-score | 0.17 |
| CTATGTAAGTTAAGGGGGTCATTCAGTTTGAAAG | PXR homodimer (NR concentration 270 nM) | PBM binding z-score | 10.3 |
| CGAACTAGGTCAAAGGACAGTGACAGGCGACGTA | PXR homodimer (NR concentration 270 nM) | PBM binding z-score | 0.0588 |
| ATATGTAGGTTACATCCGGGTCTTTCAGGCTATG | PXR homodimer (NR concentration 270 nM) | PBM binding z-score | 0.192 |
| TCTTGTAGGTCAAAGGTTAAGAAAGCCGAAGCCT | PXR homodimer (NR concentration 270 nM) | PBM binding z-score | 0.389 |
| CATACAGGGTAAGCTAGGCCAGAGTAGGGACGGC | PXR homodimer (NR concentration 270 nM) | PBM binding z-score | -0.446 |
| CGAACTAGGTCACCAGGACAGTAAAGAGGTTGGA | PXR homodimer (NR concentration 270 nM) | PBM binding z-score | 0.231 |

====

- Test system: THRa:RXRa (NR concentration 90 nM, RXRa partner concentration 90 nM)
- assay.info: PBM binding z-score (relative to random genomic background probes); higher = stronger binding; sequences stand for … in GC…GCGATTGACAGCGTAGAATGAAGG
Recorded PBM binding z-score, one value per entry.
readout.type: PBM binding z-score

| sequence.record | readout.type | reported.result |
| --- | --- | --- |
| GCTGCTAGGTAAGGTTGGTCAGCTAACGGGTACG | PBM binding z-score | 0.277 |
| ATCGAAAGGTCGAAGGAGAGTATACCCACCCGAA | PBM binding z-score | 1.76 |
| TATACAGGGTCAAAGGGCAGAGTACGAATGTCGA | PBM binding z-score | 3.98 |
| ATATGTAGGTTACATCCGAGTCATTCAGGCTATG | PBM binding z-score | 0.785 |
| CCGAGTTGGTTACGAGGGGGCATTCAGTGCGAAT | PBM binding z-score | 2.46 |
| CCGAGTAGGTTAGGAGGGGGCATTCAGTGCGAAT | PBM binding z-score | 3.46 |
| GGAACGAGGGCATTCGAGTTGATAGCATGGCGAT | PBM binding z-score | 3.03 |
| CCTTACGGGTCGCTGACAGGTTATAGCATTTGGA | PBM binding z-score | 0.913 |
| CTAACTAGGTCACAGAGGTCAAAGTCCGTGCGTA | PBM binding z-score | 4.64 |
| TCGAGTAGGTTACGCGGGCATTCAGGGATGAAGA | PBM binding z-score | 0.97 |
| CTCGAAAGGGCGTGCTCAGGTGAGTATACCAAAC | PBM binding z-score | 2.23 |
| CCGAGTAGGTTACGAGGGGGCTTTCAGTGCGAAT | PBM binding z-score | 2.33 |
